# Test summary: Cytotoxic dose at which 50% growth of normal cells is inhibited
# Format: cell-based
# Assay context: chlorocebus sabaeus, Vero cells; read-out: CyD50
CC50 overview
Give your result in µg/mL as a bare value.

[
  {
    "Sample smiles": "COc1c(-c2ccc(O)cc2)oc2cc(F)ccc2c1=O",
    "Recorded metric": "CC50",
    "Unit abbreviation": "µg/mL",
    "Reading": 25
  },
  {
    "Sample smiles": "COc1cc(O)c2c(=O)c(OC)c(-c3ccc(O)cc3)oc2c1",
    "Recorded metric": "CC50",
    "Unit abbreviation": "µg/mL",
    "Reading": 100
  },
  {
    "Sample smiles": "COc1c(-c2ccc(O)cc2)oc2ccc(O)cc2c1=O",
    "Recorded metric": "CC50",
    "Unit abbreviation": "µg/mL",
    "Reading": 3
  }
]

Fill blank: measured CC50 of the compound COc1c(-c2ccc(O)c(O)c2)oc2cc(O)cc(O)c2c1=O is ____. 5

For the compound shown here, COc1c(-c2ccc(O)cc2)oc2cc(I)ccc2c1=O , give the reported CC50. 20

Fill blank: measured CC50 of the compound COc1cc(O)c2c(=O)c(OC)c(-c3ccc(O)c(O)c3)oc2c1 is ____. 10

For COc1c(-c2ccc(Cl)cc2)oc2cc(C)ccc2c1=O , what is its reported CC50? 100

Reported CC50 for COc1cc2oc(-c3ccc(O)cc3)c(OC)c(=O)c2c(O)c1OC : what is it? 100

Need CC50, item COc1cc(OC)c2c(=O)c(OC)c(-c3ccc(O)cc3)oc2c1 100

Dear colleague, I am looking for the recorded CC50 of the following compound: COc1c(-c2ccc(Cl)cc2)oc2ccc(Cl)cc2c1=O 20

Please report the recorded CC50 for COc1c(-c2ccc(O)cc2)oc2ccc(C)cc2c1=O . 75

----------
# Test summary: Therapeutic Index measured as the ratio of CyD50(polio) / ED99(polio) values
# Assay type: organism-based
# Assay context: enterovirus c; read-out: Therapeutic index 99
Recorded metric: selectivity ratio

[
  {
    "Compound": "COc1c(-c2ccc(O)cc2)oc2ccc(C(C)C)cc2c1=O",
    "selectivity ratio": 2
  }
]

Quick check: selectivity ratio of COc1c(-c2ccc(O)cc2)oc2cc(I)ccc2c1=O ? 5

Query (compound): COc1cc(O)c2c(=O)c(OC)c(-c3ccc(O)cc3)oc2c1OC ; field requested: selectivity ratio 400

Please give the measured selectivity ratio for this compound: COc1cc(O)c2c(=O)c(OC)c(-c3ccc(O)cc3)oc2c1 [KUMATAKENIN] 333

Requested field: selectivity ratio. Item: COc1c(-c2ccc(O)cc2)oc2ccc(N)cc2c1=O 2

Could you share which selectivity ratio value was measured for COc1ccc2oc(-c3ccc(O)cc3)c(OC)c(=O)c2c1 ? 8

# input compound: COc1c(-c2ccc(O)cc2)oc2c(OC)cccc2c1=O ; wanted: its selectivity ratio 1.25

----------
The following compounds are listed with their measured CC50 values.
# Test summary: Cytotoxic dose at which 50% growth of normal cells is inhibited
# Assay type: cell-based
# Assay context: chlorocebus sabaeus, Vero cells; read-out: CyD50

[
  {
    "Compound": "COc1c(-c2ccc(O)cc2)oc2c(OC)cccc2c1=O",
    "Reading": "25 µg/mL"
  },
  {
    "Compound": "COc1cc(-c2oc3cc(O)c(OC)c(O)c3c(=O)c2OC)ccc1O",
    "Reading": "1 µg/mL"
  },
  {
    "Compound": "Cc1ccc2c(=O)c(OC(C)C)c(-c3ccc(O)cc3)oc2c1",
    "Reading": "2 µg/mL"
  },
  {
    "Compound": "COc1c(-c2ccc(O)cc2)oc2cccc(O)c2c1=O",
    "Reading": "25 µg/mL"
  },
  {
    "Compound": "Cc1ccc2c(=O)c(N)c(-c3ccc(O)cc3)oc2c1",
    "Reading": "10 µg/mL"
  },
  {
    "Compound": "COc1c(-c2ccc(O)cc2)oc2ccccc2c1=O",
    "Reading": "10 µg/mL"
  },
  {
    "Compound": "COc1c(-c2ccc(O)cc2)oc2ccc([N+](=O)[O-])cc2c1=O",
    "Reading": "> 0.1 µg/mL"
  },
  {
    "Compound": "Cc1ccc2c(=O)c(Cl)c(-c3ccc(O)cc3)oc2c1",
    "Reading": "50 µg/mL"
  },
  {
    "Compound": "COc1c(O)cc2oc(-c3ccc(O)cc3)c(OC)c(=O)c2c1O [3,6-DIMETHOXY KAEMPFEROL]",
    "Reading": "25 µg/mL"
  },
  {
    "Compound": "COc1c(-c2ccc(O)cc2)oc2cc(Br)ccc2c1=O",
    "Reading": "30 µg/mL"
  }
]

Next:
Quick check: CC50 of Cc1ccc2c(=O)c(C)c(-c3ccc(O)cc3)oc2c1 ? 100 µg/mL
